Attribution: PubChem BioAssay AID2060492

test system: 695427-040-R-J1-PDC complex spheroids, viability percent T/C; assay: Anticancer human tumor 695427-040-R-J1-PDC patient-derived colon adenocarcinoma cell line growth inhibition [GQUAD]; settings: second compound 0.0316 µM; first compound 0.0316 µM; active compounds read low
valueKind: viability, T/C (%)

molecule	measuredTarget	recordedValue
C=CCn1c(=O)c2cnc(Nc3ccc(N4CCN(C)CC4)cc3)nc2n1-c1cccc(C(C)(C)O)n1 + Cc1[nH]c2ccc(F)cc2c1-c1nc2c3cccnc3c3ncccc3c2[nH]1	695427-040-R-J1-PDC complex spheroids, viability percent T/C	102
CC(C)(O)C1CCC(Nc2ccc3ncc(-c4cccc(C(F)(F)F)c4)n3n2)CC1 (stereo not given) + Cc1[nH]c2ccc(F)cc2c1-c1nc2c3cccnc3c3ncccc3c2[nH]1	695427-040-R-J1-PDC complex spheroids, viability percent T/C	109
C=CC(=O)N1CCN(c2nc(=O)n(-c3c(C)ccnc3C(C)C)c3nc(-c4c(O)cccc4F)c(F)cc23)C(C)C1 (stereo not given) + Cc1cnc(CNC(=O)c2c(=O)c3ccc(N4CCCN(C)CC4)nc3n3c2sc2ccccc23)cn1	695427-040-R-J1-PDC complex spheroids, viability percent T/C	103
CC(=O)O[C@H]1C(=O)[C@@]2(C)[C@H]([C@H](OC(=O)c3ccccc3)[C@]3(O)C[C@H](OC(=O)[C@H](O)[C@@H](NC(=O)c4ccccc4)c4ccccc4)C(C)=C1C3(C)C)[C@]1(OC(C)=O)CO[C@@H]1C[C@@H]2O + Cc1cnc(CNC(=O)c2c(=O)c3ccc(N4CCCN(C)CC4)nc3n3c2sc2ccccc23)cn1	695427-040-R-J1-PDC complex spheroids, viability percent T/C	102
C=CCn1c(=O)c2cnc(Nc3ccc(N4CCN(C)CC4)cc3)nc2n1-c1cccc(C(C)(C)O)n1 + Cc1cnc(CNC(=O)c2c(=O)c3ccc(N4CCCN(C)CC4)nc3n3c2sc2ccccc23)cn1	695427-040-R-J1-PDC complex spheroids, viability percent T/C	88.3

----------
Each entry below carries its recorded viability, T/C.
system: 695427-040-R-J1-PDC complex spheroids, viability percent T/C; assay: Anticancer human tumor 695427-040-R-J1-PDC cell line growth inhibition [GQUAD]; conditions: second compound 3.16 µM; first compound 1 µM; active compounds read low;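 note: spheroids exposed to compounds for seven days before readout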

compound	viability, T/C
CC(C)n1c(=O)n(C)c2cnc3cc(F)c(-c4ccc(OCCCN5CCCCC5)nc4)cc3c21 + Cc1[nH]c2ccc(F)cc2c1-c1nc2c3cccnc3c3ncccc3c2[nH]1	96.2%
C=CC(=O)N1CCN(c2nc(=O)n(-c3c(C)ccnc3C(C)C)c3nc(-c4c(O)cccc4F)c(F)cc23)C(C)C1 (stereo not given) + CN(C)c1ccc(Nc2c3ccc(NC(=O)CCN4CCCC4)cc3nc3cc(NC(=O)CCN4CCCC4)ccc23)cc1	98.5%
CC1COCCN1c1cc(C2(O)CC3CCC(C2)O3)c2cnn(-c3ccn[nH]3)c2n1 (stereo not given) + CN(C)c1ccc(Nc2c3ccc(NC(=O)CCN4CCCC4)cc3nc3cc(NC(=O)CCN4CCCC4)ccc23)cc1	51.8%
CC(=O)O[C@H]1C(=O)[C@@]2(C)[C@H]([C@H](OC(=O)c3ccccc3)[C@]3(O)C[C@H](OC(=O)[C@H](O)[C@@H](NC(=O)c4ccccc4)c4ccccc4)C(C)=C1C3(C)C)[C@]1(OC(C)=O)CO[C@@H]1C[C@@H]2O + Cc1cnc(CNC(=O)c2c(=O)c3ccc(N4CCCN(C)CC4)nc3n3c2sc2ccccc23)cn1	44.3%
CC1COCCN1c1cc(C2(O)CC3CCC(C2)O3)c2cnn(-c3ccn[nH]3)c2n1 (stereo not given) + Cc1[nH]c2ccc(F)cc2c1-c1nc2c3cccnc3c3ncccc3c2[nH]1	34.2%
C=CCn1c(=O)c2cnc(Nc3ccc(N4CCN(C)CC4)cc3)nc2n1-c1cccc(C(C)(C)O)n1 + Cc1[nH]c2ccc(F)cc2c1-c1nc2c3cccnc3c3ncccc3c2[nH]1	64.8%
COc1cccc2c1C(=O)c1c(O)c3c(c(O)c1C2=O)CC(O)(C(=O)CO)CC3OC1CC(N)C(O)C(C)O1 (stereo not given) + Cc1[nH]c2ccc(F)cc2c1-c1nc2c3cccnc3c3ncccc3c2[nH]1	59.4%
CCCS(=O)(=O)Nc1ccc(F)c(C(=O)c2c[nH]c3ncc(-c4ccc(Cl)cc4)cc23)c1F + Cc1cnc(CNC(=O)c2c(=O)c3ccc(N4CCCN(C)CC4)nc3n3c2sc2ccccc23)cn1	63.4%
COc1cc(C2c3cc4c(cc3C(OC3OC5COC(C)OC5C(O)C3O)C3COC(=O)C23)OCO4)cc(OC)c1O (stereo not given) + Cc1[nH]c2ccc(F)cc2c1-c1nc2c3cccnc3c3ncccc3c2[nH]1	82.7%
COc1cc(C2c3cc4c(cc3C(OC3OC5COC(C)OC5C(O)C3O)C3COC(=O)C23)OCO4)cc(OC)c1O (stereo not given) + CN(C)c1ccc(Nc2c3ccc(NC(=O)CCN4CCCC4)cc3nc3cc(NC(=O)CCN4CCCC4)ccc23)cc1	90.3%
CCCS(=O)(=O)Nc1ccc(F)c(C(=O)c2c[nH]c3ncc(-c4ccc(Cl)cc4)cc23)c1F + Cc1[nH]c2ccc(F)cc2c1-c1nc2c3cccnc3c3ncccc3c2[nH]1	71.2%
COc1ccc([C@@H](O)c2cc(-c3ncnc4cc(N5CCOCC5)ccc34)c(F)cc2Cl)nn1 + Cc1cnc(CNC(=O)c2c(=O)c3ccc(N4CCCN(C)CC4)nc3n3c2sc2ccccc23)cn1	46%
Cc1cccc(N(C)C(=O)C2C(O)CCN2c2nc(C)cc(C(F)(F)F)c2C#N)c1 (stereo not given) + Cc1[nH]c2ccc(F)cc2c1-c1nc2c3cccnc3c3ncccc3c2[nH]1	91.1%
CC(C)(O)C1CCC(Nc2ccc3ncc(-c4cccc(C(F)(F)F)c4)n3n2)CC1 (stereo not given) + CN(C)c1ccc(Nc2c3ccc(NC(=O)CCN4CCCC4)cc3nc3cc(NC(=O)CCN4CCCC4)ccc23)cc1	71.3%
C=CCn1c(=O)c2cnc(Nc3ccc(N4CCN(C)CC4)cc3)nc2n1-c1cccc(C(C)(C)O)n1 + Cc1cnc(CNC(=O)c2c(=O)c3ccc(N4CCCN(C)CC4)nc3n3c2sc2ccccc23)cn1	33.4%
CC1COCCN1c1cc(C2(S(C)(=N)=O)CC2)nc(-c2ccnc3[nH]ccc23)n1 (stereo not given) + Cc1[nH]c2ccc(F)cc2c1-c1nc2c3cccnc3c3ncccc3c2[nH]1	81.8%
O=c1[nH]cc(F)c(=O)[nH]1 + CN(C)c1ccc(Nc2c3ccc(NC(=O)CCN4CCCC4)cc3nc3cc(NC(=O)CCN4CCCC4)ccc23)cc1	88.3%
CC1COCCN1c1cc(-c2ccnn2C)c2ccnc(-c3ccn[nH]3)c2n1 (stereo not given) + Cc1[nH]c2ccc(F)cc2c1-c1nc2c3cccnc3c3ncccc3c2[nH]1	31%
CC(C)n1c(=O)n(C)c2cnc3cc(F)c(-c4ccc(OCCCN5CCCCC5)nc4)cc3c21 + CN(C)c1ccc(Nc2c3ccc(NC(=O)CCN4CCCC4)cc3nc3cc(NC(=O)CCN4CCCC4)ccc23)cc1	98.8%
Cc1cccc(N(C)C(=O)C2C(O)CCN2c2nc(C)cc(C(F)(F)F)c2C#N)c1 (stereo not given) + Cc1cnc(CNC(=O)c2c(=O)c3ccc(N4CCCN(C)CC4)nc3n3c2sc2ccccc23)cn1	51.2%

----------
tested on: 695427-040-R-J1-PDC complex spheroids, viability percent T/C; assay: Anticancer human tumor 695427-040-R-J1-PDC cell line growth inhibition [GQUAD]; details: second compound 0.1 µM; first compound 0.00999 µM; active compounds read low;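 note: spheroids exposed to compounds for seven days before readout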
Binarize viability, T/C at 90%; below is Condition met, at or above is Condition not met.

molecule	discreteLabel
CC[C@@]1(O)C(=O)OCc2c1cc1n(c2=O)Cc2cc3c(CN(C)C)c(O)ccc3nc2-1 + CN(C)c1ccc(Nc2c3ccc(NC(=O)CCN4CCCC4)cc3nc3cc(NC(=O)CCN4CCCC4)ccc23)cc1	Condition not met
Cc1[nH]c2ccccc2c1CCNCc1ccc(/C=C/C(=O)NO)cc1 + CN(C)c1ccc(Nc2c3ccc(NC(=O)CCN4CCCC4)cc3nc3cc(NC(=O)CCN4CCCC4)ccc23)cc1	Condition not met
CCc1c2c(nc3ccc(O)cc13)-c1cc3c(c(=O)n1C2)COC(=O)[C@]3(O)CC + Cc1cnc(CNC(=O)c2c(=O)c3ccc(N4CCCN(C)CC4)nc3n3c2sc2ccccc23)cn1	Condition met
CC[C@@]1(O)C(=O)OCc2c1cc1n(c2=O)Cc2cc3c(CN(C)C)c(O)ccc3nc2-1 + Cc1[nH]c2ccc(F)cc2c1-c1nc2c3cccnc3c3ncccc3c2[nH]1	Condition not met
Cn1ncnc1[C@H]1c2n[nH]c(=O)c3cc(F)cc(c23)N[C@@H]1c1ccc(F)cc1 + CN(C)c1ccc(Nc2c3ccc(NC(=O)CCN4CCCC4)cc3nc3cc(NC(=O)CCN4CCCC4)ccc23)cc1	Condition not met
Cn1ncnc1[C@H]1c2n[nH]c(=O)c3cc(F)cc(c23)N[C@@H]1c1ccc(F)cc1 + Cc1[nH]c2ccc(F)cc2c1-c1nc2c3cccnc3c3ncccc3c2[nH]1	Condition met
